- system.tested: specific IgE contained in the sera of 7 patients allergic to birch and apple
- experiment: ELISA inhibition, 7 sera pre-incubated with 1.25 µg/ml inhibitor; competitor: wt Bet v 1 adsorbed on wells
experimental.endpoint: mean % inhibition of Bet v 1-IgE binding (7 sera) (%)
Please respond with the number in % and leave the unit unwritten.

Please report mean % inhibition of Bet v 1-IgE binding (7 sera) for the following binder: mixture of the two mutagenised allergens (mut Bet v 1-SEQ ID NO:6 and mut Mal d 1-SEQ ID NO:2) (protein) chain 1: HHHHHHGVFNYETETTSVIPAARLFKAFILDGDNLFPKVAPQAISSVENIEGNGGPGTIAKISFPEGFPFKYVKDRVDEVDHTNFKYNYSVIEGGPIGDTLEKISNEIKIVATPDGGSILAINNKYHTAGDHEVKAEQIKASKEMGETLLRAVESYLLAHSDAYN chain 2: HHHHHHGVYTFENEFTSEIPPSRLFKAFVLAADNLIPKIAPQAIKQAEILEGDGGPGTIKKITFGEGSQYGYVKHKIDSVDEAAYSYAYTLIEGDALTDTIEKVSYETKLVASGSGSIIKSISHYHTKGDVEIKEEHVKAGKEKAHGLFKLIESYLKGHPDAYN
53.3
